All figures here come from patent US20230348362A1.

assay: Encapsulation efficiency of lipid nanoparticles, Quant-it Ribogreen RNA assay; assay type: physicochemical; conditions: LNP of lipid/DSPC/cholesterol/PEG-lipid 50:10:38.5:1.5 encapsulating hEPO mRNA
OBSERVATION_TYPE: Encapsulation Efficiency

Study these solved cases before continuing.
CCCCCCCCC(CCCCCCCC)COC(=O)CCCCCN(CCO)CCN(CCCCCC(=O)OCC(CCCCCCCC)CCCCCCCC)Cc1ccc(O)cc1 [Compound 56]    92.96%
CCCCCCCCCCCC(=O)OCCCCCN(CCN(CCO)CCOCCOC(=O)CC(CCCCCCCC)CCCCCCCC)C1CCCCC1 [Compound 98]    89.31%
CCCCCCCCC(CCCCCC)CNC(=O)CCCCCCN(CCO)CCN(CCCCC(COC(=O)CCCCCCC)COC(=O)CCCCCCC)C1CCCCCCC1 (stereo not drawn) [Compound 233]    91.15%

Exercise: Can you look up the measured Encapsulation Efficiency of CCCCCCCCC(CCCCCCCC)COC(=O)CCCCCN(CCO)CCN(CCCCCC(=O)OCC(CCCCCCCC)CCCCCCCC)Cc1ccccc1 [Compound 36] for me?
Solution: 89.3%

Exercise: For the compound CCCCCCCCC(CCCCCCCC)COC(=O)CCOCCN(CCO)CCN(CCOCCC(=O)OCC(CCCCCCCC)CCCCCCCC)C1CCCCC1 [Compound 113] , what Encapsulation Efficiency is on record?
Solution: 92.93%

Exercise: Any idea what its Encapsulation Efficiency is? The compound is CCCCCCCCCCCOC(=O)CCCCCN(CCN(CCO)CCCCCOC(=O)OCC(CCCCCCCC)CCCCCCCC)C1CCCCC1 [Compound 128]
Solution: 92.31%

###

assay: Encapsulation efficiency of lipid nanoparticles, Quant-it Ribogreen RNA assay; type: physicochemical; conditions: LNP of lipid/DSPC/cholesterol/PEG-lipid 50:10:38.5:1.5 encapsulating hEPO mRNA
OBSERVATION_TYPE: Encapsulation Efficiency (%)
Value expressed in %; do not type the unit.

Example entries begin here.
CCCCCCCCCCCCC(O)CN(CCCCCC(=O)OCC(CCCCCC)CCCCCCCC)CCN(CCCCCC(=O)OCCCCCCCCCCC)C1CCC1 (stereo not drawn) [Compound 2]    86.6
CCCCCCCCC(CCCCCCCC)COC(=O)CCCCCN(CCO)CCN(CCCCCOC(=O)N(CCCCCCCC)CCCCCCCC)C1CCCCC1 [Compound 127]    91.77
CCCCCCCCC(CCCCCCCC)COC(=O)CCCCCN(CC=C(C)C)CCN(CCCCCC(=O)OCC(CCCCCCCC)CCCCCCCC)C1CCC(O)CC1 (stereo not drawn) [Compound 126]    92.26
CCCCCCCCC(CCCCCC)CNC(=O)CCCCCCN(CCO)CCN(CCCCC(COC(=O)CCCCCCC)COC(=O)CCCCCCC)C1CCCCC1 (stereo not drawn) [Compound 231]    92.25
CCCCCCCCC(CCCCCCCC)COC(=O)CCCCCN(CC=C(C)C)CCN(CCO)CCCCCC(=O)OCC(CCCCCCCC)CCCCCCCC [Compound 42]    90.1

Below: the item to evaluate.
Exercise: Consider the compound CCCCCCCCC(CCCCCC)CNC(=O)CCN(CCO)CCN(CCCCC(COC(=O)CCCCCCC)COC(=O)CCCCCCC)C1CCCCC1 (stereo not drawn) [Compound 211] and give its measured Encapsulation Efficiency.
Solution: 84.88

###

assay: Apparent pKa of LNP formulations, TNS fluorescence assay; type: physicochemical; conditions: LNP cationic lipid/DSPC/cholesterol/DMG-PEG 50/10/38.5/1.5 mol %
Entries and their measured Apparent Pka follow.

CCCCCCCCCCCCCCCCC(CN(CCO)CCN(CC(CCCCCCCCCCCCCCCC)OCCCCCCCC)C1CCC1)OCCCCCCCC (stereo not drawn) [Compound 25]    4.853
CCCCCCCCC(CCCCCC)CNC(=O)CCCCCN(CCO)CCN(CCCCC(COC(=O)CCCCCCC)COC(=O)CCCCCCC)C1CCC1 (stereo not drawn) [Compound 136]    6.831
CCCCCCCCC(CCCCCCCC)COC(=O)CCCCCN(CCN(CCO)CCOCCC(=O)OCC(CCCCCCCC)CCCCCCCC)C1CCCCC1 [Compound 111]    6.108
CCCCCCCCC(CCCCCCCC)COC(=O)OCCCCCN(CCO)CCN(CCCCCNC(=O)CC(CCCCCC)CCCCCCCC)C1CCCCCC1 (stereo not drawn) [Compound 153]    6.437
CCCCCCCCC(CCCCCCCC)COC(=O)CCCCCN(CCO)CCN(CCCCCCOC(=O)C(CCCCCCCC)CCCCCCCC)C1CCC1 [Compound 84]    6.117
CCCCCCCCC(CCCCCC)CC(=O)OCCCCCN(CCO)CCN(CCCCCN(C)C(=O)CC(CCCCCC)CCCCCCCC)C1CCCCCC1 (stereo not drawn) [Compound 147]    6.62

Exercise: // lookup Apparent Pka for CCCCCCCCCCCOC(=O)CCCCCN(CCN(CCO)CCCCC(COC(=O)CCCCCCC)COC(=O)CCCCCCC)C1CCCC1 [Compound 183]
Solution: 6.858

Exercise: Please give the measured Apparent Pka for this molecule: CCCCCCCCCCCOC(=O)CCCCCN(CCN(CCO)CCCCCCCC(=O)OCC(CCCCCCCC)CCCCCCCC)C1CCCCC1 [Compound 48]
Solution: 6.295

Exercise: What measured Apparent Pka goes with CCCCCCCCC(CCCCCCCC)COC(=O)CCCCCN(C/C=C/CN(CCCCCC(=O)OCC(CCCCCCCC)CCCCCCCC)C1CCC1)CCO [Compound 65] ?
Solution: 6.443

Exercise: # Apparent Pka lookup, item CCCCCCCC(=O)OCC(COCCN(CCO)CCN(CCOCC(COC(=O)CCCCCCC)COC(=O)CCCCCCC)C1CCCCC1)COC(=O)CCCCCCC [Compound 179]
Solution: 6.322

Exercise: Return reported Apparent Pka; argument: CCCCCCCCCCCOC(=O)CCOCCN(CCN(CCO)CCOCCC(=O)OCC(CCCCCCCC)CCCCCCCC)C1CCC1 [Compound 116]
Solution: 6.826

Exercise: Query (molecule): CCCCCCCC(=O)OCC(CCCCN(CCO)CCN(CCCCC(COC(=O)CCCCCCC)COC(=O)CCCCCCC)C1CCCCC1)COC(=O)CCCCCCC [Compound 141] ; field requested: Apparent Pka
Solution: 6.475

###

experiment: Lipid nanoparticle size and polydispersity by dynamic light scattering; assay type: physicochemical; details: LNP of lipid/DSPC/cholesterol/PEG-lipid 50:10:38.5:1.5 encapsulating hEPO mRNA
Below, each entry is listed alongside its reported size (nm).
# answer = value followed by unit

Previously resolved entries follow.
CCCCCCCCC(CCCCCCCC)COC(=O)CCCCCN(CCO)CCN(CCCCCC(=O)OCC(CCCCCCCC)CCCCCCCC)Cc1ccc([N+](=O)[O-])cc1    54.42 nm
CCCCCCCCC(CCCCCC)COC(=O)CCCCCN(CCO)CCN(CCCCC(COC(=O)CCCCCCC)COC(=O)CCCCCCC)C1CCCC1 (stereo not drawn)    67.32 nm

Then this compound:
Exercise: Entry CCCCCCCCC(CCCCCCCC)COC(=O)CCCCCN(CCO)CCN(CCCCCCOC(=O)C(CCCCCCCC)CCCCCCCC)C1CCC1 has what size (nm)?
Solution: 59.91 nm

###

Readings of Apparent Pka for the listed compounds
assay: Apparent pKa of LNP formulations, TNS fluorescence assay; format: physicochemical; conditions: LNP cationic lipid/DSPC/cholesterol/DMG-PEG 50/10/38.5/1.5 mol %

As a guide, the following entries are already answered.
CCCCCCCCC(CCCCCC)COC(=O)CCCCCN(CCO)CCN(CCCCCC(=O)OCC(CCCCCC)CCCCCCCC)C1CCCCCC1 (stereo not shown)    6.162
CCCCCCCCC(CCCCCCCC)COC(=O)CCCCCN(CCO)CCN(CCCCCC(=O)OCC(CCCCCCCC)CCCCCCCC)C1CCC(C(F)(F)F)CC1 (stereo not shown)    6.073
CCCCCCCCC(CCCCCCCC)COC(=O)CCCCCN(CCO)CCN(CC=C(C)C)CCOCCC(=O)OCC(CCCCCCCC)CCCCCCCC    6.336
CCCCCCCCC(CCCCCCCC)COC(=O)CCCCCN(CCC)CCN(CCCCCC(=O)OCC(CCCCCCCC)CCCCCCCC)C1CCC(O)CC1 (stereo not shown)    6.114
CCCCCCCCC(CCCCCCCC)COC(=O)CCCCCN(C)C1CCC(N(CCO)CCCCCC(=O)OCC(CCCCCCCC)CCCCCCCC)CC1 (stereo not shown)    7.262

Exercise: Find the recorded Apparent Pka belonging to CCCCCCCCCCCOC(=O)CCCCCN(CCN(CCO)CCCCCC(=O)OCC(CCCCCC)CCCCCCCC)C1CCCC1 (stereo not shown) and report it.
Solution: 6.56

Exercise: Fill blank: measured Apparent Pka of the compound CCCCCCCCC(CCCCCCCC)COC(=O)CCCCCN(CCO)CCN(CCCCCC(=O)OCC(CCCCCCCC)CCCCCCCC)C1CCSCC1 is ____.
Solution: 6.131

Exercise: Given CCCCCCCCC(CCCCCCCC)CC(=O)OCCCCCN(CCO)CCN(CCCCCOC(=O)CC(CCCCCCCC)CCCCCCCC)C1CCC1 , state its recorded Apparent Pka.
Solution: 6.21

Exercise: Which Apparent Pka is reported for this compound? CCCCCCCCC(CCCCCCCC)COC(=O)CCCCCN(CCCCCN(CCO)CCCCC(COC(=O)CCCCCCC)COC(=O)CCCCCCC)C1CCC1
Solution: 6.226

Exercise: Name the recorded Apparent Pka for CCCCCCCCCCCC(=O)OCCCCCN(CCN(CCO)CCCCCOC(=O)CC(CCCCCCCC)CCCCCCCC)C1CCC1 .
Solution: 6.582

Exercise: What value of Apparent Pka has been reported for the following compound? CCCCCCCCCCCOC(=O)CCCCCN(CCN(CCO)CCCCCCC(=O)OCC(CCCCCCCC)CCCCCCCC)C1CCCCC1
Solution: 6.346

Exercise: May I ask what Apparent Pka has been recorded for CCCCCCCCC(CCCCCC)COC(=O)CCCCCN(CCCCN(CCO)CCCCC(COC(=O)CCCCCCC)COC(=O)CCCCCCC)C1CCCCCCC1 (stereo not shown) ?
Solution: 6.705
